These data points were gathered from the supplement of paper PMC11908140.

So I've got a bunch of variants here, and I need their 8OG:A repair function score values.
B1: library; numbered along this chain (parent)
chain: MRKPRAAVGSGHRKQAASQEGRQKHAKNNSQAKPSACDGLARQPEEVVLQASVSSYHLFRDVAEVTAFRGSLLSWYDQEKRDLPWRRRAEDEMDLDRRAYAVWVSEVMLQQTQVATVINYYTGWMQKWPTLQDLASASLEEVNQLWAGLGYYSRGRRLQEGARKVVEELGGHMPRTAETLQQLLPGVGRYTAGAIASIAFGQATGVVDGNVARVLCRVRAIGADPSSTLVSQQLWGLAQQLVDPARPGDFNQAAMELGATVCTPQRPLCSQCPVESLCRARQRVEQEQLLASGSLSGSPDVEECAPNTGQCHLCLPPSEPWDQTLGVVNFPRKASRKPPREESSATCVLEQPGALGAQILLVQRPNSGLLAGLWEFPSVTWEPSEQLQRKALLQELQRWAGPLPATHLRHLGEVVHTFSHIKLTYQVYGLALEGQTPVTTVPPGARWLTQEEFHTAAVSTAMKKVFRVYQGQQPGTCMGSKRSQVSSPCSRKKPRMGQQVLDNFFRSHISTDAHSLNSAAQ

Variants of: B1
Assay: 8OG:A repair function score (normalized; synonymous = 0, nonsense = -1) (normalized log-likelihood score); higher = more repair activity (WT-like);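 further: cells sorted at 72 h after reporter transfection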
Conditions: with 8OG:A DNA repair reporter (GFP) in HEK-293 MUTYH KO cells
Give bare numbers.

1) L237K
-0.816
2) K337H
-0.0482
3) W103Q
-0.686

I need 8OG:A repair function score for every entry listed below, if you could help.
1. S231D
2. G368V

A:
[-0.132, -0.27]
